Where do the numbers come from? From paper PMC8185074.

Hi there, I'd appreciate the recorded HDAC6 activity raw data (signal) for every entry that follows.
Target: HDAC6 (Homo sapiens)
Construct: purchased Reaction Biology Corporation (assay run by the CRO)
Sequence (Q9UBN7 1-1215): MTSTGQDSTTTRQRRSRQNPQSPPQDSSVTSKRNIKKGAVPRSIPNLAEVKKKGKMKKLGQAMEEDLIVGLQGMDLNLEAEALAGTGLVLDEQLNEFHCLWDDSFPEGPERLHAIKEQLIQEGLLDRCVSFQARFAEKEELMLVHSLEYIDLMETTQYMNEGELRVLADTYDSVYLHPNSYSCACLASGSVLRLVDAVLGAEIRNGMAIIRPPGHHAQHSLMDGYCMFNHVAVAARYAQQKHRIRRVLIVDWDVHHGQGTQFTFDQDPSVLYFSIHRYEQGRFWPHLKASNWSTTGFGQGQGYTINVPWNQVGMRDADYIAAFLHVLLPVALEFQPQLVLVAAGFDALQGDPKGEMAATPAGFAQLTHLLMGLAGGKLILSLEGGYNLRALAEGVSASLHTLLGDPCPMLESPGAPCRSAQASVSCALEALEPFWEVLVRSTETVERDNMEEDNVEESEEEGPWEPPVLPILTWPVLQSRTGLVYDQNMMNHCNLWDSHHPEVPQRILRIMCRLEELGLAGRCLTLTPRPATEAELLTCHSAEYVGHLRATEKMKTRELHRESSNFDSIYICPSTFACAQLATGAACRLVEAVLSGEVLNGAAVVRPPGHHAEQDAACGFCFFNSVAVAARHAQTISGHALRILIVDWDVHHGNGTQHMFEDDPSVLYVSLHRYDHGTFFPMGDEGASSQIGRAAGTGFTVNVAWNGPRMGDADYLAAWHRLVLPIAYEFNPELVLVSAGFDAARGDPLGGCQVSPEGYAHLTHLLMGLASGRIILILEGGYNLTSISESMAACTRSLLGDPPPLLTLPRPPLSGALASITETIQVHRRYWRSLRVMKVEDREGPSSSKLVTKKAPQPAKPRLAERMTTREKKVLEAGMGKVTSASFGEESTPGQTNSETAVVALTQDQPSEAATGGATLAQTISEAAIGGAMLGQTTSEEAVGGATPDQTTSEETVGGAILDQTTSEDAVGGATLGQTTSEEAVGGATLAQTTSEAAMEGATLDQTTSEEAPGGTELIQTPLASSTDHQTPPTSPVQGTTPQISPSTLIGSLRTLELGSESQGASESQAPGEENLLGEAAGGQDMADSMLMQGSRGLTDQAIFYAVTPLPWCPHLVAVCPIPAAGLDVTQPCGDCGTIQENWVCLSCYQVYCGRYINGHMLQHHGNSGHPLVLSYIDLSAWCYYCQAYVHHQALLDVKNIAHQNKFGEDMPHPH
Assay: HDAC6 inhibition, full IC50 measurement (Reaction Biology; fluorogenic p53 peptide RHKK(Ac)AMC)
Type: biochemical
Conditions: Conc. 4.12E-08 M, t2
Peptide text beside a SMILES is read from it.
Keep the answer to the number alone.

Name the reported HDAC6 activity raw data (signal) value associated with the compound CC(C)[C@@H]1NC(=O)[C@H](CCCNC(=N)N)NC(=O)[C@@H](CC(=O)O)NC(=O)[C@H](CO)NC(=O)[C@@H](CO)NC(=O)[C@@H](CCC(=O)O)NC(=O)[C@H](Cc2ccc(O)cc2)NC(=O)[C@H](CCCCCS)NC1=O [des4.2.0, SHA-Tyr-dGlu-dSer-Ser-dAsp-Arg-Val] (HELM PEPTIDE1{R.V.[O=C([C@H](CCCCCS)N[*:1])[*:2]].Y.[dE].[dS].S.[dD]}$PEPTIDE1,PEPTIDE1,1:R1-8:R2$$$V2.0)
432840

Continue with CC(C)C[C@H]1NC(=O)[C@H](Cc2c[nH]c3ccccc23)NC(=O)[C@H](CCCCCS)NC(=O)[C@@H](Cc2ccc(O)cc2)NC(=O)[C@@H](C(C)C)NC(=O)[C@H](Cc2c[nH]cn2)NC(=O)CNC(=O)CNC(=O)[C@@H](CO)NC1=O [des2.2.0, SHA-Trp-dLeu-dSer-Gly-Gly-His-dVal-dTyr] (HELM PEPTIDE1{G.G.H.[dV].[dY].[O=C([C@H](CCCCCS)N[*:1])[*:2]].W.[dL].[dS]}$PEPTIDE1,PEPTIDE1,1:R1-9:R2$$$V2.0)
177888

Continue with CCCC[C@H]1NC(=O)[C@H](Cc2ccccc2)NC(=O)[C@H](CCCCCS)NC(=O)[C@@H](CO)NC(=O)[C@H](CC(=O)O)NC(=O)[C@@H](CO)NC(=O)[C@@H](C)NC(=O)[C@H](CCCCN)NC1=O [des4.3.1.1, SHA-Phe-dNle-Lys-dAla-dSer-Asp-dSer] (HELM PEPTIDE1{D.[dS].[O=C([C@H](CCCCCS)N[*:1])[*:2]].F.[CCCC[C@@H](N[*:1])C(=O)[*:2]].K.[dA].[dS]}$PEPTIDE1,PEPTIDE1,1:R1-8:R2$$$V2.0)
1648611

---

Biological target: HDAC6 (Homo sapiens)
Construct: purchased Reaction Biology Corporation (assay run by the CRO)
Experiment: HDAC6 inhibition, full IC50 measurement (Reaction Biology; fluorogenic p53 peptide RHKK(Ac)AMC)
Format: biochemical
Details: Conc. 3.70E-07 M, t2
Peptide text beside a SMILES is read from it.
Label rule, in plain words: HDAC6 activity raw data (signal) of 50000 and up is True, under 50000 is False.

Say whether N=C(N)NCCC[C@@H]1NC(=O)[C@@H](CCCNC(=N)N)NC(=O)[C@H]2CCCN2C(=O)[C@@H](Cc2c[nH]cn2)NC(=O)[C@H](Cc2ccc(O)cc2)NC(=O)[C@H](CCCCCS)NC(=O)[C@H](CCc2ccccc2)NC(=O)[C@@H](CO)NC(=O)[C@H](CC(=O)O)NC1=O [des3.3.1, SHA-Tyr-dHis-dPro-dArg-Arg-Asp-dSer-C27] (HELM PEPTIDE1{[O=C([C@H](CCCCCS)N[*:1])[*:2]].Y.[dH].[dP].[dR].R.D.[dS].[O=C([C@H](CCc1ccccc1)N[*:1])[*:2]]}$PEPTIDE1,PEPTIDE1,1:R1-9:R2$$$V2.0) shows HDAC6 activity raw data (signal) of 50000 or more.
False

Continue with CCCC[C@H]1NC(=O)[C@H](Cc2ccccc2)NC(=O)[C@H](CCCCCS)NC(=O)[C@@H](CCCNC(=N)N)NC(=O)[C@H](C)NC(=O)[C@@H](CO)NC(=O)[C@@H](C)NC(=O)[C@H](CCCCN)NC1=O [des4.3.1.3, SHA-Phe-dNle-Lys-dAla-dSer-Ala-dArg] (HELM PEPTIDE1{A.[dR].[O=C([C@H](CCCCCS)N[*:1])[*:2]].F.[CCCC[C@@H](N[*:1])C(=O)[*:2]].K.[dA].[dS]}$PEPTIDE1,PEPTIDE1,1:R1-8:R2$$$V2.0)
True

Continue with NCCCC[C@H]1NC(=O)[C@H](CCC(N)=O)NC(=O)[C@H](CCC(=O)O)NC(=O)[C@@H]2CCCN2C(=O)[C@H](CC(N)=O)NC(=O)[C@H](CCCCCS)NC(=O)CNC(=O)[C@H](Cc2c[nH]c3ccccc23)NC1=O [des1.1.1, SHA-Asn-Pro-Glu-Gln-dLys-Trp-Gly] (HELM PEPTIDE1{E.Q.[dK].W.G.[O=C([C@H](CCCCCS)N[*:1])[*:2]].N.P}$PEPTIDE1,PEPTIDE1,1:R1-8:R2$$$V2.0)
False

Continue with N=C(N)NCCC[C@@H]1NC(=O)[C@H](Cc2c[nH]c3ccccc23)NC(=O)[C@H](CC(=O)O)NC(=O)[C@@H](CO)NC(=O)[C@H](Cc2c[nH]c3ccccc23)NC(=O)[C@H](CCCCCS)NC(=O)[C@H](CCC(N)=O)NC1=O [des4.1.0, SHA-Trp-dSer-Asp-Trp-Arg-Gln] (HELM PEPTIDE1{D.W.R.Q.[O=C([C@H](CCCCCS)N[*:1])[*:2]].W.[dS]}$PEPTIDE1,PEPTIDE1,1:R1-7:R2$$$V2.0)
False

Continue with CCCC[C@H]1NC(=O)[C@H](Cc2ccccc2)NC(=O)[C@H](CCCCCS)NC(=O)[C@@H](CO)NC(=O)[C@H](CC(=O)O)NC(=O)[C@@H](CO)NC(=O)[C@@H](C)NC(=O)[C@H](CCCCN)NC1=O [des4.3.1.1, SHA-Phe-dNle-Lys-dAla-dSer-Asp-dSer] (HELM PEPTIDE1{D.[dS].[O=C([C@H](CCCCCS)N[*:1])[*:2]].F.[CCCC[C@@H](N[*:1])C(=O)[*:2]].K.[dA].[dS]}$PEPTIDE1,PEPTIDE1,1:R1-8:R2$$$V2.0)
True

Continue with CCCC[C@H]1NC(=O)[C@H](Cc2ccccc2)NC(=O)[C@H](CCCCCS)NC(=O)[C@@H](CCCNC(=N)N)NC(=O)[C@H](CC(=O)O)NC(=O)[C@@H](CO)NC(=O)[C@@H](C)NC(=O)[C@H](CCCCN)NC1=O [des4.3.1, SHA-Phe-dNle-Lys-dAla-dSer-Asp-dArg] (HELM PEPTIDE1{D.[dR].[O=C([C@H](CCCCCS)N[*:1])[*:2]].F.[CCCC[C@@H](N[*:1])C(=O)[*:2]].K.[dA].[dS]}$PEPTIDE1,PEPTIDE1,1:R1-8:R2$$$V2.0)
False

Continue with CSCC[C@H]1NC(=O)[C@@H](CO)NC(=O)[C@H](CC(N)=O)NC(=O)[C@H](CC(=O)O)NC(=O)[C@@H]([C@H](C)O)NC(=O)[C@H](Cc2c[nH]c3ccccc23)NC(=O)[C@H](CCCCCS)NC(=O)[C@H](CCCCN)NC(=O)[C@@H](CC(=O)O)NC1=O [des2.1.1, SHA-Trp-dThr-Asp-Asn-dSer-dMet-dAsp-Lys] (HELM PEPTIDE1{D.N.[dS].[dM].[dD].K.[O=C([C@H](CCCCCS)N[*:1])[*:2]].W.[dT]}$PEPTIDE1,PEPTIDE1,1:R1-9:R2$$$V2.0)
False

Continue with C[C@H](O)[C@H]1NC(=O)[C@H](Cc2c[nH]c3ccccc23)NC(=O)[C@H](CCCCCS)NC(=O)[C@H](CCCCN)NC(=O)[C@@H](CC(=O)O)NC(=O)[C@@H](CCCCN)NC(=O)[C@@H](CO)NC(=O)[C@H](CC(N)=O)NC(=O)[C@H](CC(=O)O)NC1=O [des2.1.0, SHA-Trp-dThr-Asp-Asn-dSer-dLys-dAsp-Lys] (HELM PEPTIDE1{D.N.[dS].[dK].[dD].K.[O=C([C@H](CCCCCS)N[*:1])[*:2]].W.[dT]}$PEPTIDE1,PEPTIDE1,1:R1-9:R2$$$V2.0)
True
